// data source = PubChem BioAssay (NCI)

# System: SNB-19 CNS
# methodDescription: NCI-60 one-dose screen, 48 h
# testParameters: 10 µM unless noted
Compounds without any hit were thinned out: in the full panel of roughly 83,000, 20% have a hit. Calls of active or inactive are those of the source. How the source made its calls: active means growth percent below 10; inactive means the rest.
Outcomes you can answer with include only these: yes (1) (active), no (0) (inactive)

1) COC(=O)CC(=O)C(=O)OC: no (0)

*Q* Called result for COc1ccc(/C=N/c2cc(C(C)(C)C)nn2-c2ccccc2)cc1
*A* no (0)

*Q* Called result for O=S(=O)(O)c1ccc2c(c1)Sc1cc(S(=O)(=O)O)ccc1O2
*A* no (0)

---

# System: SK-OV-3 ovarian
# methodDescription: NCI-60 one-dose screen, 48 h (100 = growth as untreated, 0 = no growth, -100 = all killed)
# testParameters: 10 µM unless noted
This is part of a sample that, as a whole, favours compounds with a hit. Of some 83,000 tested, about 20% had one in any assay.
Can you tell me growth for the items I'm about to list?
One number for each entry, in %.

Field: example entries. Status: answers known.
1) COC(=O)c1ccc2[nH]c(O)c(C(=Nc3ccc(N(C)C(=O)CN4CCN(C)CC4)cc3)c3ccc(CCO)cc3)c2c1: 39.7
2) O=C(/C=C/c1cccc(O)c1)c1cccc(-n2cc(-c3ccc(Cl)cc3)[nH]c2=O)c1: 37.7

// each listed molecule needs a value for growth
1. CCOC(=O)NC1=NCC(C)(C)S1
2. COc1ccc(C2C3(C#N)C(N)=NC(=C(C#N)C#N)C23C#N)cc1OC (stereo not given)
3. NCCCOc1cc2ccccc2cc1C(=O)Nc1ccc(Cl)cc1OC(=O)c1cc2ccccc2cc1OCCCN

*A*
1: 95.2; 2: 109; 3: -90.8
